Provide the recorded rep 2 coiled for the entries that follow.
tested on: Pristionchus pacificus; experiment: Pristionchus pacificus motor disruption dose-response on solid media, 1 h; conditions: conc 60; count of 20 animals per trial, one hour
Hey, just send me the number, nothing else.

Query block: Bench note: what rep 2 coiled did FC(F)(F)c1cccc(N2CCN(CC3CCCC3)CC2)c1 show?
Result block: 0

Query block: # query: rep 2 coiled of entry Clc1ccc(N2CCN(CC3CC4C=CC3C4)CC2)cc1 (centres unmarked)
Result block: 8

Query block: Sample c1cc(N2CCN(CC3CCC3)CC2)ccn1 — what was its rep 2 coiled?
Result block: 0

Query block: Fill in: rep 2 coiled of FC(F)(F)c1cccc(N2CCN(CC3CCCCC3)CC2)c1 is ___
Result block: 0

Query block: Value lookup for rep 2 coiled; key = CC1CCC(N2CCN(c3ccc(Cl)cc3)CC2)C1 (centres unmarked)
Result block: 7
